Measured values drawn from ChEMBL document CHEMBL2311388 for this set.

Measured IC50 values are reported for all entries that follow.
tested on: Human immunodeficiency virus 1; test: Antiviral activity against wild type HIV1 3B infected in human MT4 cells assessed as cell viability by MTT assay in presence of human serum albumin; type: functional, organism-based; conditions: Human immunodeficiency virus 1, 3B
Lab note: write values as number then unit, every time.

Reference set, count: 5
{"compound": "CS(=O)(=O)N1CCCN2C(=O)c3c(O)c(=O)c(C(=O)NCc4ccc(F)cc4)cn3CC21 (racemic)", "assayed system": "Human immunodeficiency virus 1", "IC50": "120 nM"}
{"compound": "O=C(NCc1ccc(F)cc1)c1cn2c(c(O)c1=O)C(=O)N(CCN1CCOCC1)CC2", "assayed system": "Human immunodeficiency virus 1", "IC50": "34 nM"}
{"compound": "CC(C)N1CCCN2C(=O)c3c(O)c(=O)c(C(=O)NCc4ccc(F)cc4)cn3CC21 (racemic)", "assayed system": "Human immunodeficiency virus 1", "IC50": "32.3 nM"}
{"compound": "O=C(NCc1ccc(F)cc1)c1cn2c(c(O)c1=O)C(=O)N1CCOC1C2 (racemic)", "assayed system": "Human immunodeficiency virus 1", "IC50": "140 nM"}
{"compound": "O=C(NCc1ccc(F)cc1)c1cn2c(c(O)c1=O)C(=O)N1CCCOC1C2 (racemic)", "assayed system": "Human immunodeficiency virus 1", "IC50": "26.9 nM"}

The recorded IC50 for COCCN1CCCN2C(=O)c3c(O)c(=O)c(C(=O)NCc4ccc(F)cc4)cn3CC12 (racemic) is 20.3 nM

* * *

Measured CC50 at 96 h values are reported for all entries that follow.
experiment: Cytotoxicity against human MT4 cells assessed as growth inhibition after 4 days by MTT assay; type: cell-based

The recorded CC50 at 96 h for CC(=O)N1CCCN2C(=O)c3c(O)c(=O)c(C(=O)NCc4ccc(F)cc4)cn3CC12 (racemic) is > 200 µM

The recorded CC50 at 96 h for `CC(C)OCCN1CCn2cc(C(=O)NCc3ccc(F)cc3)c(=O)c(O)c2C1=O` is 30 µM

The recorded CC50 at 96 h for O=C(NCc1ccc(F)cc1)c1cn2c(c(O)c1=O)C(=O)N1CCOC1C2 (racemic) is 72 µM

The recorded CC50 at 96 h for COCCN1C(=O)c2c(O)c(=O)c(C(=O)NCc3ccc(F)cc3)cn2CC1O (centres undefined) is 83 µM

* * *

tested on: Human immunodeficiency virus 1; test: Selectivity ratio of IC50 for wild type HIV1 3B infected in human MT4 cells in presence of human serum albumin to IC50 for wild type HIV1 3B infected in human MT4 cells; assay type: functional
Record Y whenever Ratio IC50 is at 4 or higher; record N when lower.

{"compound": "CC(C)N1CCN2C(=O)c3c(O)c(=O)c(C(=O)NCc4ccc(F)cc4)cn3CC21 (racemic)", "qualitative label": "N"}
{"compound": "CC(C)N1CCCN2C(=O)c3c(O)c(=O)c(C(=O)NCc4ccc(F)cc4)cn3CC21 (racemic)", "qualitative label": "Y"}
{"compound": "O=C(NCc1ccc(F)cc1)c1cn2c(c(O)c1=O)C(=O)N1CCCOC1C2 (racemic)", "qualitative label": "Y"}
{"compound": "COC(=O)c1[nH]cc(C(=O)NCc2ccc(F)cc2)c(=O)c1O", "qualitative label": "Y"}
{"compound": "CC(C)OCCn1ccn2cc(C(=O)NCc3ccc(F)cc3)c(=O)c(O)c2c1=O", "qualitative label": "Y"}
{"compound": "CN1CCCN2C(=O)c3c(O)c(=O)c(C(=O)NCc4ccc(F)cc4)cn3CC12 (racemic)", "qualitative label": "Y"}

Request: Does the compound O=C(NCc1ccc(F)cc1)c1cn2c(c(O)c1=O)C(=O)N1CCOC1C2 (racemic) have recorded Ratio IC50 that is 4 or more?
Result: Y

Request: Does the compound CC(C)CN1CCCCN2C(=O)c3c(O)c(=O)c(C(=O)NCc4ccc(F)cc4)cn3CC12 (racemic) have recorded Ratio IC50 that is 4 or more?
Result: Y

Request: Does the compound CC(=O)N1CCCN2C(=O)c3c(O)c(=O)c(C(=O)NCc4ccc(F)cc4)cn3CC12 (racemic) have recorded Ratio IC50 that is 4 or more?
Result: N

Request: Does the compound CS(=O)(=O)N1CCCN2C(=O)c3c(O)c(=O)c(C(=O)NCc4ccc(F)cc4)cn3CC21 (racemic) have recorded Ratio IC50 that is 4 or more?
Result: N
